Tested on: luciferase light signal from pIB29EL (yopE-luxAB)
procedure_summary: microbe, parasite or virus in culture
Format: cell-based, Yersinia pseudotuberculosis
measurement_setup: 5 μM; strain pIB29EL; Table 2C
quantity_kind: Inhibition (%) of the luciferase light signal
Numbers only, in %.

Past entries and their recorded results:
> print(dat)
                                   compound                           target.of.assay  value.observed
1  CC(=O)Oc1ccccc1C(=O)Nc1ccc(Cl)cc1 [Compound 60]  luciferase light signal from pIB29EL (yopE-luxAB)               0
2  O=C(Nc1ccccc1)c1cc(I)cc(I)c1O [Compound 31]  luciferase light signal from pIB29EL (yopE-luxAB)              10
3  O=C(Nc1ccc([N+](=O)[O-])cc1Cl)c1cc(Cl)ccc1O [Compound 55]  luciferase light signal from pIB29EL (yopE-luxAB)              85
4  O=C(Nc1ccc(SC(F)(F)F)cc1)c1cc2cc(Br)ccc2c(Br)c1O [Compound 53]  luciferase light signal from pIB29EL (yopE-luxAB)              11
5  O=C(Nc1ccc(Cl)c(Cl)c1)c1ccccc1NS(=O)(=O)c1cccc2nsnc12 [Compound 59]  luciferase light signal from pIB29EL (yopE-luxAB)               0

Please state, for each entry, its recorded Inhibition (%) of the luciferase light signal.
1. CC(=O)Oc1ccc(Cl)cc1C(=O)Nc1ccc([N+](=O)[O-])cc1Cl [Compound 56]
2. CC(=O)Oc1ccc(I)cc1C(=O)Nc1ccc(Br)cc1 [Compound 51]
3. CC(=O)Oc1c(Cl)cc(Cl)c(Cl)c1C(=O)Nc1ccc(SC(F)(F)F)cc1 [Compound 47]
4. O=C(Nc1ccc(SC(F)(F)F)cc1)c1cccc(Cl)c1O [Compound 54]

Outgoing:
[77, 91, 55, 41]
